Target: T1, VEGFR-3-Fc (UniProt P35916 25-328)
T1 construct: domain: first three Ig domains; conditioned supernatant of 293T cells; also called VEGFR-3-Fc fusion protein; not shown: Fc fragment of the pIg vector
T1 sequence (looked up): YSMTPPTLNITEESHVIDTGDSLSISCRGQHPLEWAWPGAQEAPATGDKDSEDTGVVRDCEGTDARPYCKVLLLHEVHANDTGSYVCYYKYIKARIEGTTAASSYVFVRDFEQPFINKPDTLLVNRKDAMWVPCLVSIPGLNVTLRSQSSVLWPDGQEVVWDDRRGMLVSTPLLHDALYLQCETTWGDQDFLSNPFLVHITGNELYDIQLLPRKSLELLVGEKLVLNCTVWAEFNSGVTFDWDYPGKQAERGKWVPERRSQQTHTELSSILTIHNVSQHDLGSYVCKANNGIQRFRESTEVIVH
Assay: receptor-Fc IP

- binder: "24-13 (ligand) AHYNTEILKSIDNEWRKTQCMPREVCIDVGKEFGVATNTFFKPSCVPLMRCGGCCNDEGLECVPTEESNITMQIMRITVPLSQGPKPVTISFANHTSCRCMSKLD"
  binding result: "no binding"
- binder: "22-15 (ligand) AHYNTEILKSIDNEWRKTQCMPREVCIDVGKEFGVATNTFFKPPCVSVYRCGGCCNSEGLQCVPTEESNITMQIMRITVPLSQGPKPVTISFANHTSCRCMSKLD"
  binding result: "no binding"
- binder: "82-15 (ligand) AHYNTEILKFMDVYQRSYCHPIETLVDIFQEFGVATNTFFKPPCVSVYRCGGCCNSEGLQCVPTEESNITMQIMRITVPLSQGPKPVTISFANHTSCRCMSKLD"
  binding result: "binds"
- binder: "73-15 (ligand) GQNHHEVVKSIDNEWRKTQCMPREVCIDVGKEYPDEIEYIFKPPCVSVYRCGGCCNSEGLQCVPTEESNITMQIMRITVPLSQGPKPVTISFANHTSCRCMSKLD"
  binding result: "no binding"
- binder: "41-9 (ligand) AHYNTEILKFMDVYQRSYCHPREVCIDVGKEYPDEIEYIFKPSCVPLMRCGGCCNDEGLECVPTEESNITMQIMRITVPLSQGPKPVTISFLQHNKCECRPKKD"
  binding result: "no binding"
- binder: "12-13 (ligand, clone acquired a point mutation, Asp to Asn at the last C-terminal amino acid of the hybrid) GQNHHEVVKFMDVYQRSYCHPIETLVDIFQEFGVATNTFFKPPCVSVYRCGGCCNDEGLECVPTEESNITMQIMRITVPLSQGPKPVTISFANHTSCRCMSKLNLVFEQKLISEEDLNSAVDHHHHHH"
  binding result: "binds"
- binder: "54-15 (ligand) AHYNTEILKSIDNEWRKTQCMPIETLVDIFQEFGVATNTFFKPSCVPLMRCGGCCNSEGLQCVPTEESNITMQIMRITVPLSQGPKPVTISFANHTSCRCMSKLD"
  binding result: "no binding"
- binder: "53-6 (ligand) AHYNTEILKSIDNEWRKTQCMPIETLVDIFQEYPDEIEYIFKPPCVSVYRCGGCCNDEGLECMNTSTSYLSKTLFEIKPHQGQHIGEMSFANHTSCRCMSKLD"
  binding result: "no binding"
- binder: "52-11 (ligand) AHYNTEILKSIDNEWRKTQCMPIETLVDIFQEFGVATNTFFKPPCVSVYRCGGCCNSEGLQCVPTEESNITMQIMRITVPLSQGPKPVTISFLQHNKCECRPKKD"
  binding result: "binds"
- binder: "12-9 (ligand) GQNHHEVVKFMDVYQRSYCHPIETLVDIFQEFGVATNTFFKPPCVSVYRCGGCCNDEGLECVPTEESNITMQIMRITVPLSQGPKPVTISFLQHNKCECRPKKDLVFEQKLISEEDLNSAVDHHHHHH"
  binding result: "binds"
- binder: "31-6 (ligand) GQNHHEVVKSIDNEWRKTQCMPIETLVDIFQEYPDEIEYIFKPSCVPLMRCGGCCNDEGLECMNTSTSYLSKTLFEIKPHQGQHIGEMSFANHTSCRCMSKLD"
  binding result: "no binding"
- binder: "61-8 (ligand) GQNHHEVVKFMDVYQRSYCHPREVCIDVGKEYPDEIEYIFKPSCVPLMRCGGCCNSEGLQCMNTSTSYLSKTLFEIKPHQGQHIGEMSFANHTSCRCMSKLD"
  binding result: "no binding"
- binder: "64-3 (ligand) GQNHHEVVKFMDVYQRSYCHPREVCIDVGKEFGVATNTFFKPSCVPLMRCGGCCNSEGLQCVPTEESNITMQIMRIKPHQGQHIGEMSFLQHNKCECRPKKD"
  binding result: "no binding"
- binder: "63-11 (ligand) GQNHHEVVKFMDVYQRSYCHPREVCIDVGKEYPDEIEYIFKPPCVSVYRCGGCCNSEGLQCVPTEESNITMQIMRITVPLSQGPKPVTISFLQHNKCECRPKKD"
  binding result: "no binding"
- binder: "73-2 (ligand) GQNHHEVVKSIDNEWRKTQCMPREVCIDVGKEYPDEIEYIFKPPCVSVYRCGGCCNDEGLECMNTSTSYLSKTLFEIKPHQGQHIGEMSFLQHNKCECRPKKD"
  binding result: "no binding"
- binder: "72-14 (ligand) GQNHHEVVKSIDNEWRKTQCMPREVCIDVGKEFGVATNTFFKPPCVSVYRCGGCCNDEGLECMNTSTSYLSKTLFEITVPLSQGPKPVTISFANHTSCRCMSKLD"
  binding result: "binds"

meta.source: patent US20080058263A1
